For each record, write down the corresponding Anti-CD28 Fab (SEQ ID NOs: 202, 203) signal.
# ASSAY_SYSTEM: T1, Anti-CD28 Fab (SEQ ID NOs: 202, 203)
# T1 construct: biotinylated and captured on neutravidin coated plates in the phage ELISA
# T1 sequence (VH, as listed by the source, chain 1 of 2): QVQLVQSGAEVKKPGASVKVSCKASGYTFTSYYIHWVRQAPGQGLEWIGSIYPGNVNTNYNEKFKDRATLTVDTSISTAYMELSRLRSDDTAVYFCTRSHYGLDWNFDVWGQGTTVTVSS
# T1 sequence (VL, as listed by the source, chain 2 of 2): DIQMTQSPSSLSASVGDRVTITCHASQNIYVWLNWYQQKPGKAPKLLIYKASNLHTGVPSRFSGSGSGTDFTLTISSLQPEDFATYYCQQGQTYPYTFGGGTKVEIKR
# TEST: phage ELISA, Fab on plate;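 note: crude clonal phage supernatants added to wells pretreated with blocking buffer with or without CD28 antigen, then bound phage read out via HRP-linked anti-M13 antibody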
Answers are plain numbers.

# count of solved cases: 2
[
  {
    "BINDER": "YCDGHSLEYIEKCL [Phage-601]",
    "VALUE": 1.43
  },
  {
    "BINDER": "YCEGHAEQYMKKCL [Phage-728]",
    "VALUE": 1.12
  }
]

# batch size: 2; output Anti-CD28 Fab (SEQ ID NOs: 202, 203) signal per entry
1. YCDGHSWIYMVKCL [Phage-717]
2. YCVGHSEQYMAKCL [Phage-726]

1.16
1.13

# batch size: 6; output Anti-CD28 Fab (SEQ ID NOs: 202, 203) signal per entry
1. YCAGHSSEYIGKCL [Phage-710]
2. YCEGHSSQWMWKCL [Phage-674]
3. YCDGHSPAYLQKCL [Phage-673]
4. YCDGHMKEYMLKCL [Phage-635]
5. YCAGHTSEYMSKCL [Phage-634]
6. YCDGHSETYLWKCL [Phage-631]

1. 1.17
2. 1.27
3. 1.28
4. 1.36
5. 1.36
6. 1.37

# batch size: 5; output Anti-CD28 Fab (SEQ ID NOs: 202, 203) signal per entry
1. YCEGHLPAYMGKCI [Phage-632]
2. YCEGHAQEYMAKCL [Phage-744]
3. YCDGHANAYIWKCL [Phage-742]
4. YCDGHAEEYRMKCL [Phage-678]
5. YCNGHLPEYMSKCI [Phage-618]

[1.37, 1.06, 1.07, 1.27, 1.4]

# batch size: 7; output Anti-CD28 Fab (SEQ ID NOs: 202, 203) signal per entry
1. YCEGHLPRYMLKCL [Phage-671]
2. YCDGHAEQYMSKCL [Phage-623]
3. YCEGHIPMYMLKCM [Phage-743]
4. YCEGHMSIYMQKCL [Phage-683]
5. YCDGHVKEYMYKCL [Phage-636]
6. YCEGHHRIYMQKCL [Phage-681]
7. YCDGHEQQYMEKCL [Phage-723]

1. 1.28
2. 1.38
3. 1.06
4. 1.25
5. 1.36
6. 1.26
7. 1.14

# batch size: 2; output Anti-CD28 Fab (SEQ ID NOs: 202, 203) signal per entry
1. YCAGHLPQYMHKCL [Phage-730]
2. YCAGHLPMYMQKCL [Phage-653]

1.11
1.33

# batch size: 7; output Anti-CD28 Fab (SEQ ID NOs: 202, 203) signal per entry
1. YCDGHLEQYMLKCL [Phage-692]
2. YCDGHSEAYIEKCL [Phage-648]
3. YCDGHSLEYIDKCM [Phage-607]
4. YCEGHLAEYMNKCL [Phage-690]
5. YCQGHSVEHMAKCL [Phage-666]
6. YCDGHSHEYMQKCL [Phage-611]
7. YCDGHAPQYMRKCL [Phage-651]

[1.24, 1.34, 1.42, 1.24, 1.3, 1.41, 1.33]
